Test system: velvetleaf
TEST: Test B pre-/postemergence herbicide test
Type: in vivo, Abutilon theophrasti
PARTICULARS: preemergence, 125 g ai/ha; 0 to 100 scale, 0 is no effect, 100 is complete control
MEASURED_QUANTITY: Plant response rating, Velvetleaf
Give the figure by itself; no unit, no explanation.

>  <COMPOUND>
CCn1nc(C(C)(C)C)cc1C(=O)Nc1cccc(C(=O)NC(C)C)c1 [Compound 51]

>  <Plant response rating, Velvetleaf>
50

$$$$
>  <COMPOUND>
CCOC(=O)c1cc(NC(=O)c2cc(C(C)(C)C)nn2CC)ccc1OCC [Compound 95]

>  <Plant response rating, Velvetleaf>
0

$$$$

Attention now turns to another entry.
Name the recorded Plant response rating, Velvetleaf of the compound listed here: CCn1nc(C(C)(C)C)cc1C(=O)Nc1cccc(C(=O)NCC2CC2)c1 [Compound 62]
80

---

Known Velvetleaf plant response rating of a selection of molecules
Test system: velvetleaf
TEST: Test A pre-/postemergence herbicide test
Assay type: in vivo, Abutilon theophrasti
PARTICULARS: Postemergence, 500 g ai/ha; 0 to 100 scale, 0 no effect, 100 complete control
Source text: […] Plants ranged in height from 2 to 10 cm and were in the one- to two-leaf stage for the postemergence treatment. Treated plants and untreated controls were maintained in a greenhouse for approximately ten days, after which time all treated plants were compared to untreated controls and visually evaluated for injury. […]
Give the figure by itself; no unit, no explanation.

Example molecules with recorded Velvetleaf plant response rating:
>  <MOLECULE>
CCOC(=O)c1cccc(NC(=O)c2sc(C(C)(C)C)nc2CC)c1

>  <ASSAYED_TARGET>
velvetleaf

>  <TEST_RESULT>
40

$$$$
>  <MOLECULE>
CCn1nc(C(C)(C)C)cc1C(=O)Nc1ccnc(C(=O)N2CC=CC2)c1

>  <ASSAYED_TARGET>
velvetleaf

>  <TEST_RESULT>
50

$$$$
>  <MOLECULE>
CC(=O)c1cccc(NC(=O)c2sc(C(C)(C)C)nc2C)c1

>  <ASSAYED_TARGET>
velvetleaf

>  <TEST_RESULT>
0

$$$$
>  <MOLECULE>
CCNC(=O)c1ccc(F)c(NC(=O)c2cc(C3(C)CC3)nn2CC)c1

>  <ASSAYED_TARGET>
velvetleaf

>  <TEST_RESULT>
60

$$$$
>  <MOLECULE>
CCc1nc(C(C)(C)C)sc1C(=O)Nc1cccc(C(=O)NC(C)(C)C)n1

>  <ASSAYED_TARGET>
velvetleaf

>  <TEST_RESULT>
25

$$$$
>  <MOLECULE>
CCc1nc(C(C)(C)C)sc1C(=O)Nc1cccc(C(=O)NCCF)c1

>  <ASSAYED_TARGET>
velvetleaf

>  <TEST_RESULT>
10

$$$$

Name the recorded Velvetleaf plant response rating of the molecule listed here: Cc1nn(C(C)(C)C)cc1C(=O)Nc1cccc(OC(C)C)c1
5

Name the recorded Velvetleaf plant response rating of the molecule listed here: CCNC(=O)c1ccc(F)c(NC(=O)C2CC(C(C)(C)C)=NN2CC)c1 (racemic)
25

Name the recorded Velvetleaf plant response rating of the molecule listed here: CCn1nc(C(C)(C)C)cc1C(=O)Nc1cncc(C(=O)N2CC=CC2)n1
20

Name the recorded Velvetleaf plant response rating of the molecule listed here: C#CCNC(=O)c1ccc(F)c(NC(=O)c2cc(C(C)(C)C)nn2CC)n1
20

Name the recorded Velvetleaf plant response rating of the molecule listed here: CCN(C)C(=O)c1ccc(F)c(NC(=O)c2cc(C(C)(C)C)nn2CC)n1
20

Name the recorded Velvetleaf plant response rating of the molecule listed here: CC(=NO)c1cccc(NC(=O)c2cc(C(C)(C)C)n[nH]2)c1
10

Name the recorded Velvetleaf plant response rating of the molecule listed here: C#CCNC(=O)c1cc(NC(=O)c2cc(C(C)(C)C)nn2CC)ccn1
15

Name the recorded Velvetleaf plant response rating of the molecule listed here: CCn1nc(C(C)(C)C)cc1C(=O)Nc1cc(C(=O)NC(C)(C)C)ccn1
10

Name the recorded Velvetleaf plant response rating of the molecule listed here: C=CCNC(=O)c1cccc(NC(=O)c2cc(C(C)(C)C)nn2C)n1
40

Name the recorded Velvetleaf plant response rating of the molecule listed here: CCn1nc(C(C)(C)C)cc1C(=O)Nc1cccc(C(=O)OCCF)c1C
5

Name the recorded Velvetleaf plant response rating of the molecule listed here: CCc1nc(C(C)(C)C)sc1C(=O)Nc1cccc(C(=O)N(CC)CC)c1
20

---

Tested on: corn
TEST: Test B pre-/postemergence herbicide test
Format: in vivo, Zea mays
PARTICULARS: postemergence, 125 g ai/ha; scale 0 to 100
Known Corn plant response rating of a selection of compounds
Give the figure by itself; no unit, no explanation.

>  <CHEM_SMILES>
CCc1nn(C(C)C)nc1C(=O)Nc1cccc(C(=S)N(C)C)c1

>  <Corn plant response rating>
0

$$$$
>  <CHEM_SMILES>
C=CCNC(=O)c1cccc(NC(=O)c2nn(C(C)(C)C)nc2C)n1

>  <Corn plant response rating>
30

$$$$
>  <CHEM_SMILES>
CCNC(=S)c1cccc(NC(=O)c2nn(C(C)(C)C)nc2C)c1

>  <Corn plant response rating>
20

$$$$
>  <CHEM_SMILES>
Cc1nn(C(C)(C)C)nc1C(=O)Nc1cccc(C(=O)N2CC=CC2)n1

>  <Corn plant response rating>
0

$$$$

Attention now turns to another entry.
Name the recorded Corn plant response rating of the compound listed here: CCn1nc(C(C)(C)C)cc1C(=O)Nc1cccc(OS(=O)(=O)CC)c1
10

---

Test system: lambsquarters
TEST: Test C pre-/postemergence herbicide test
Type: in vivo, Chenopodium album
PARTICULARS: 62 g ai/ha; preemergence
Known Plant response rating (0 = no effect, 100 = complete control), Lambsquarters of a selection of molecules
Give the figure by itself; no unit, no explanation.

Example molecules with recorded Plant response rating (0 = no effect, 100 = complete control), Lambsquarters:
>  <CHEM_SMILES>
CCN1CCc2c(NC(=O)c3cc(C(C)(C)C)nn3CC)cccc2C1=O

>  <TEST_RESULT>
30

$$$$
>  <CHEM_SMILES>
CCn1nc(C(C)(C)C)cc1C(=O)Nc1cccc(C(=O)NCC2CC2)c1

>  <TEST_RESULT>
100

$$$$
>  <CHEM_SMILES>
CCNC(=O)c1cccc(NC(=O)c2cc(C(C)(C)C)nn2CCF)c1

>  <TEST_RESULT>
90

$$$$

Attention now turns to another entry.
Name the recorded Plant response rating (0 = no effect, 100 = complete control), Lambsquarters of the molecule listed here: CCNC(=O)c1cccc(NC(=O)c2cc(C(C)(C)C)nn2CC)n1
95

---

Tested on: barnyardgrass
TEST: Test B pre-/postemergence herbicide test
Format: in vivo, Echinochloa crus-galli
PARTICULARS: 125 g ai/ha; 0 is no effect, 100 is complete control; preemergence
MEASURED_QUANTITY: Plant response rating (0 to 100 scale), Barnyardgrass
Give the figure by itself; no unit, no explanation.

Example compounds with recorded Plant response rating (0 to 100 scale), Barnyardgrass:
>  <CHEM_SMILES>
CCOC(=O)c1cccc(NC(=O)c2nn(C(C)(C)C)nc2CC)c1

>  <TEST_RESULT>
10

$$$$
>  <CHEM_SMILES>
C=CCNC(=O)c1cccc(NC(=O)c2cc(C(C)(C)C)nn2C)n1

>  <TEST_RESULT>
40

$$$$
>  <CHEM_SMILES>
CCc1nn(C(C)C)nc1C(=O)Nc1cccc(C(=O)N(C)CC)c1

>  <TEST_RESULT>
90

$$$$
>  <CHEM_SMILES>
CCc1nn(C(C)(C)C)nc1C(=O)Nc1cccc(C(=O)N(C)C)c1

>  <TEST_RESULT>
100

$$$$
>  <CHEM_SMILES>
Cc1nn(C(C)C)nc1C(=O)Nc1cc(C(=O)N2CC=CC2)ccc1F

>  <TEST_RESULT>
0

$$$$

Jot down Plant response rating (0 to 100 scale), Barnyardgrass (barnyardgrass) of C#CCNC(=O)c1cccc(NC(=O)c2sc(C(C)(C)C)nc2CC)c1 .
50

Jot down Plant response rating (0 to 100 scale), Barnyardgrass (barnyardgrass) of CCNC(=O)c1cccc(NC(=O)c2nn(C(C)C)nc2CC)c1 .
30

Jot down Plant response rating (0 to 100 scale), Barnyardgrass (barnyardgrass) of C=CCNC(=O)c1cccc(NC(=O)c2nn(C(C)C)nc2CC)c1 .
80

Jot down Plant response rating (0 to 100 scale), Barnyardgrass (barnyardgrass) of CCSCNC(=O)c1cccc(NC(=O)c2cc(C(C)(C)C)nn2CC)c1 .
0

Jot down Plant response rating (0 to 100 scale), Barnyardgrass (barnyardgrass) of CCc1nn(C(C)(C)CC)nc1C(=O)Nc1cc(C(=O)N2CC=CC2)ccc1F .
0

Ref: patent US20060069132A1
